Experiment: Stability of the compound in wet DMSO-d6 assessed as parent compound remaining at 8 umol measured at room temperature after 45 days by 1HNMR spectroscopy
Format: physicochemical
Settings: at 8 µmol, time 45 day, read-out: Stability
measuredEndpoint: remaining at 1080 h, 8 umol (%)

{"columns": ["smilesData", "measuredEndpoint", "value"],
 "data": [
  ["NS(=O)(=O)Oc1ccc(-c2sc3cc(O)ccc3c2C(=O)c2ccc(OCCN3CCCCC3)cc2)cc1", "remaining at 1080 h, 8 umol", 12]
]}

* * *

Experiment: Stability of the compound in wet DMSO-d6 assessed as parent compound remaining at 6.2 umol measured at room temperature after 45 days by 1HNMR spectroscopy
Assay type: physicochemical
Conditions: at 6.2 µmol, time 45 day, read-out: Stability

{"columns": ["smilesData", "remaining at 1080 h, 6.2 umol, %"],
 "data": [
  ["NS(=O)(=O)Oc1ccc2c(C(=O)c3ccc(OCCN4CCCCC4)cc3)c(-c3ccc(O)cc3)sc2c1", 18]
]}
